Target: human CRTH2 (Homo sapiens, UniProt Q9Y5Y4)
Sequence (Q9Y5Y4 whole entry): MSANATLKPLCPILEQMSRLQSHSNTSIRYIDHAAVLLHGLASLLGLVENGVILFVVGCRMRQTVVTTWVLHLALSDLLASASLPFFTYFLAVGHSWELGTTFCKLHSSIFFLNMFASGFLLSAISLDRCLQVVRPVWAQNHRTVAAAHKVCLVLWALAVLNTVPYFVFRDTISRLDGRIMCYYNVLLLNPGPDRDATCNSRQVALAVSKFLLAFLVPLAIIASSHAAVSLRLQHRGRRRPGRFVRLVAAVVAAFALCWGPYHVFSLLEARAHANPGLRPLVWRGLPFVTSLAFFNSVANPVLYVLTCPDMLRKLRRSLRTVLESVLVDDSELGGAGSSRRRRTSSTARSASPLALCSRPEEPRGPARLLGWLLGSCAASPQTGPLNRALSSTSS
Test: Human CRTH2 Receptor Binding Assay (whole cell, [3H]ramatroban competition)
Details: CHO-K1 cells expressing human CRTH2 and G-alpha16; 20 nM [3H]ramatroban; 1 hour, room temperature
Procedure: A whole cell receptor binding assay using [^3H]ramatroban as the competing radioactive ligand was employed to evaluate the compound binding activity to human CRTH2. […] The binding reactions (0.2 mL) were performed in 96-well plates at room temperature in PBS containing 1.5×10^5 cells, 10 mM MgCl2, 0.06% BSA, 20 nM [^3H]ramatroban, and test compound at various concentrations. […] Specific binding data were obtained by subtracting the radioactivity of non-specific binding from each binding data. […]
pIC50: −log10 of the molar value.
Observation Type: pIC50

Molecule	Observation Type	Measured Number
CN(C1CCCc2c1ccc(F)c2OCC(=O)O)S(=O)(=O)c1cc(C(F)(F)F)cc(C(F)(F)F)c1 (stereo not shown)	pIC50	6.70
CC(C)c1cccc(-c2ccc(S(=O)(=O)NC3CCCc4c(OCC(=O)O)cc(Cl)cc43)nc2)c1 (stereo not shown)	pIC50	8.35
CC(C)c1cccc(-c2ccc(S(=O)(=O)NC3CCCc4c(OCC(=O)O)cc(F)cc43)nc2)c1 (stereo not shown)	pIC50	8.15
CN(C1CCCc2c1cc(Cl)c(F)c2OCC(=O)O)S(=O)(=O)c1cc(C(F)(F)F)cc(C(F)(F)F)c1 (stereo not shown)	pIC50	8.10
